- Tested on: 521955-158-R2-J5-PDC complex spheroid viability;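 note: spheroids exposed to agents for one week before reading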
- Test protocol: Anticancer human tumor 521955-158-R2-J5-PDC patient-derived pancreatic carcinoma cell line growth inhibition [GQUAD]; active = viability on the fitted dose curve at most 10% of control; inactive = the rest
- Condition summary: second compound 0.1 µM; first compound 3.16 µM
Hi! Could you answer with just one of these? Y = active, N = inactive

**Q:** Could you kindly confirm the outcome this assay logged for O=C(NO)c1cnc(N2CCN(S(=O)(=O)c3ccc4ccccc4c3)CC2)nc1 + CN(C)c1ccc(Nc2c3ccc(NC(=O)CCN4CCCC4)cc3nc3cc(NC(=O)CCN4CCCC4)ccc23)cc1 ?
**A:** Y

**Q:** How did this test come out for COc1ccc([C@@H](O)c2cc(-c3ncnc4cc(N5CCOCC5)ccc34)c(F)cc2Cl)nn1 + Cc1cnc(CNC(=O)c2c(=O)c3ccc(N4CCCN(C)CC4)nc3n3c2sc2ccccc23)cn1 ?
**A:** N

**Q:** Query: recorded result category for CC1COCCN1c1cc(C2(S(C)(=N)=O)CC2)nc(-c2ccnc3[nH]ccc23)n1 (stereo not given) + Cc1[nH]c2ccc(F)cc2c1-c1nc2c3cccnc3c3ncccc3c2[nH]1 in this test
**A:** Y

**Q:** # lookup: test call for COc1ccc([C@@H](O)c2cc(-c3ncnc4cc(N5CCOCC5)ccc34)c(F)cc2Cl)nn1 + Cc1[nH]c2ccc(F)cc2c1-c1nc2c3cccnc3c3ncccc3c2[nH]1
**A:** N

**Q:** Please state the recorded outcome for this compound: COc1ncnc(C2CC2)c1-c1ncc2cnn(Cc3ccc(-c4nc(C(F)(F)F)cn4C(C)C)cc3)c2n1 + Cc1cnc(CNC(=O)c2c(=O)c3ccc(N4CCCN(C)CC4)nc3n3c2sc2ccccc23)cn1
**A:** N
